Test system: SF-539 CNS
Experiment: NCI-60 one-dose screen, 48 h (100 = growth as untreated, 0 = no growth, -100 = all killed)
Conditions: 10 µM unless noted
This is part of a sample that, as a whole, favours compounds with a hit. Of some 83,000 tested, about 20% had one in any assay.
READOUT NAME: growth (%)

                                   molecule  quantitative_result
0    COc1ccc(-c2cc(C#N)c(NNC(C)=O)[nH]2)cc1                  112
1  COCn1c(C(=O)OC)cc2oc(/C=C3/SC(=S)N(N)C3=O)cc21                 90.3
2          CCOC1=C(Cl)C(=O)C(OCC)=C(Cl)C1=O                  101
3  O=C1Nc2ccccc2/C1=C/c1cn(CC(O)Cn2cc(/C=C3\C(=O)Nc4ccccc43)c3ccccc32)c2ccccc12 (stereo not given)                -77.7
4                O=C(Nn1cnc2ccccc21)N1CCCC1                 91.8
5  CC1=NN(c2cccc(Cl)c2)C(=O)/C1=C\c1cn(-c2nc(N3CCOCC3)nc(N3CCOCC3)n2)c2ccccc12                  109
6  C=CCSc1nnc(COc2ccc3c(C)c(Cc4ccccc4)c(=O)oc3c2C)o1                  101
7  COc1ccc(-c2nc(SCC(C)C)nc(Nc3ccc(C(=O)O)cc3)c2C#N)cc1                 97.1
8            Oc1ccccc1\C=N/N=C/C=C/c1ccccc1                  104
9      CCCCCCCCCCCCc1ccc([N+](CC)(CC)CC)cc1                 58.7
